target: P2X7 (Homo sapiens, UniProt Q99572); assay: Pore permeation assay (YO PRO dye uptake, BzATP-induced); type: cell-based; design: expressed in transfected cells; host or cells: HEK293; settings: HEK293 transfected with human P2X7 receptor; YO PRO dye 1 uM, BzATP 10 uM; read-out: hP2X7 IC50
Sequence (Q99572 whole entry): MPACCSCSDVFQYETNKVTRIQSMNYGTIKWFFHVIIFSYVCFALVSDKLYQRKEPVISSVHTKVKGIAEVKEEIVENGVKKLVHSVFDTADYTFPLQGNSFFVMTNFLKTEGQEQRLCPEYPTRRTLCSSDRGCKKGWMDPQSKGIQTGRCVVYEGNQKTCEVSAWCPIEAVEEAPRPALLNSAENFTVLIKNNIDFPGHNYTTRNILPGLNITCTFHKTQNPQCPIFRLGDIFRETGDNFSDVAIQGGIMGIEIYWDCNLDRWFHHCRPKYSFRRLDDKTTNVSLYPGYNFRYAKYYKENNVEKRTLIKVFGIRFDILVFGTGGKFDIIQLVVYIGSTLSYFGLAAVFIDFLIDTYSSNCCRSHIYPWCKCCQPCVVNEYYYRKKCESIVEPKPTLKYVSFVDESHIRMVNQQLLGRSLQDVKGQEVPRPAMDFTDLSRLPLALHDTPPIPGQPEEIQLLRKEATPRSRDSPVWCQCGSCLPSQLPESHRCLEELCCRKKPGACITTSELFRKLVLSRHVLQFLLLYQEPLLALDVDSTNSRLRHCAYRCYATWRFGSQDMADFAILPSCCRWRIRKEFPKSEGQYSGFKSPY
pIC50: −log10 of the molar value.
Provide the reported pIC50 of each item.

- O=C(NCC1CCC(F)(F)CC1)c1c(Cl)ccc2nc(NCCO)ccc12 [Compound 66]: 7.00 to 8.00

Give one value of pIC50 per listed molecule.
1. CN(C)C(=O)CCNc1ccc2c(C(=O)NCC3CCC(F)(F)CC3)c(Cl)ccc2n1 [Compound 82]
2. C[C@@H]1CCC[C@](O)(CNC(=O)c2c(Cl)ccc3nc(N4CCC(N(C)C)C4)ccc23)C1 (some centres unmarked) [Compound 6]
3. C[C@@H]1CCC[C@](O)(CNC(=O)c2c(Cl)ccc3nc(N4CCC(F)C4)ccc23)C1 (some centres unmarked) [Compound 5]

Result:
1: 6.30 to 7.00; 2: > 8.00; 3: > 8.00

Origin of the recorded values: patent US9399623B2
